Data credit: the supplement of paper PMC8967900

test system: 697; assay: selective drug sensitivity score (sDSS, relative to normal bone marrow) (sDSS (score)); higher = more potent and effective on the cell line relative to normal bone marrow cells; conditions: 72 h;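 further: ALL cell lines in 384-well plates, five doses spanning 10,000-fold, each plate scaled between vehicle and 100 µmol/L benzalkonium chloride controls, sDSS an adapted area-under-curve metric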
Label rule, in plain words: selective drug sensitivity score of 0.4 and up is Criterion met, under 0.4 is Criterion not met.

Reported selective drug sensitivity score reaches at least 0.4 for CNC(=O)c1ccc(C)c(-n2c(C)cc(OCc3ccc(F)cc3F)c(Br)c2=O)c1 (top concentration 1000 nM) ?
Criterion met

Exam item: decide whether the reported selective drug sensitivity score for COc1cc(N2CCN(C)CC2)ccc1Nc1nccc(-c2cn(C)c3cnccc23)n1 [AZ191] (top concentration 10000 nM) is at least 0.4.
Criterion met

Has CN1CC[C@@H](NC(=O)Nc2ccc(C#N)cc2)C[C@@H]1c1nc2ccccc2[nH]1 [Glasdegib] (top concentration 1000 nM) a recorded selective drug sensitivity score greater than or equal to 0.4?
Criterion not met

Could you tell me if the measured selective drug sensitivity score of O=C1CCC(N2C(=O)c3ccccc3C2=O)C(=O)N1 (stereo unspecified) [Thalidomide] (top concentration 10000 nM) reaches 0.4 or more?
Criterion not met

Item CC(C)Oc1ccc(-c2nn([C@@H](C)c3oc4ccc(F)cc4c(=O)c3-c3cccc(F)c3)c3ncnc(N)c23)cc1F [TGR-1202] (top concentration 2500 nM) with selective drug sensitivity score of 0.4 or above?
Criterion met

Could you verify whether the entry CCN1CCN(c2ccc(Nc3cc(N(C)C(=O)Nc4c(Cl)c(OC)cc(OC)c4Cl)ncn3)cc2)CC1 [Infigratinib] (top concentration 1000 nM) shows selective drug sensitivity score of no less than 0.4?
Criterion not met

* * *

tested on: RPMI-8402; assay: selective drug sensitivity score (sDSS, relative to normal bone marrow) (sDSS (score)); higher = more potent and effective on the cell line relative to normal bone marrow cells; settings: 72 h
observation type: selective drug sensitivity score
Please reply with the value in numeric form only.

Could you please provide reported selective drug sensitivity score for C=CC(=O)N1CC/C(=C\c2ccc(F)c([N+](=O)[O-])c2)C(=O)/C(=C/c2ccc(F)c([N+](=O)[O-])c2)C1 [VLX1570] (top concentration 10000 nM) ? Thanks!
-6.52

Hello, please tell me recorded selective drug sensitivity score for this one: CCNc1nc(Nc2cc(F)c(C(=O)N3CCOCC3)cc2OC)ncc1C(F)(F)F [GNE-7915] (top concentration 1000 nM)
-0.06

For the molecule Cc1[nH]nc(C(F)(F)F)c1Cc1sc2c(c1C(=O)N1C[C@](C)(O)CO1)c(=O)n(C)c(=O)n2C(C)C [AZD3965] (top concentration 1000 nM) , give its reported selective drug sensitivity score.
12.6

* * *

Assign selective drug sensitivity score to each entry below.
system: NALL-1; assay: selective drug sensitivity score (sDSS, relative to normal bone marrow) (sDSS (score)); higher = more potent and effective on the cell line relative to normal bone marrow cells; settings: 72 h
Quick one: just the number, no unit, thanks!

Look up and report measured selective drug sensitivity score for this entry: Nc1ccn([C@@H]2O[C@H](CO)[C@@H](O)C2(F)F)c(=O)n1 [Gemcitabine] (top concentration 1000 nM)
10.3

Write down selective drug sensitivity score measured for item C[C@@]1(C(=O)Nc2ccc(F)nc2)CCCN1c1nc(Nc2cc(C3CC3)n[nH]2)c2cccn2n1 (top concentration 10000 nM)
8.98

Given the compound CC[C@H](CC#N)OC(=O)N[C@@H](C)c1cccc(NC(=O)Nc2ccc(-c3cnco3)c(OC)c2)c1 [AVN944] (top concentration 10000 nM) , write its reported selective drug sensitivity score.
2.64

Answer with the recorded selective drug sensitivity score for the compound listed here: O=C(Nc1cccc(NC(=O)c2cccc(O)c2O)c1)c1cccc(O)c1O [MST-312] (top concentration 10000 nM)
0.8

Identify measured selective drug sensitivity score corresponding to CC(C)[C@H](C(=O)Nc1ccc(C(=O)NO)cc1)c1ccccc1 [AR-42] (top concentration 10000 nM)
3.68

Give the value of selective drug sensitivity score reported for the following: CN[C@@H](C)C(=O)N[C@H](C(=O)N1CCC[C@H]1c1nc(C(=O)c2ccc(F)cc2)cs1)C1CCCCC1 [NVP-LCL161] (top concentration 25000 nM)
2.48
